Catalogue of half-life values
- measurement notes: Pharmacokinetics and brain bio-distribution in mice
- Assay type: in vivo, mouse
- measurement setup: C57BL/6J, mouse, plasma, ip; mice, acute i.p. dosing; read-out: T½ plasma (converted)
- Procedure: […] Plasma samples were taken from all mice upon sacrifice. Brain samples were taken from the mice sacrificed at 5 and 15 minutes and 1 and 4 hours. The brain samples were homogenized in PBS and centrifuged at 14000 rpm for 5 minutes. […] The compound level in the samples was determined by a standard curve in the appropriate matrix. Pharmacokinetic parameters were determined from the raw data by WinNonLin.
Note: unit min is implicit; provide only the numeric part.

Exercise: Return value of half-life for input O=C(NO)c1cnc(NC2(c3cccc(F)c3)CCCCC2)nc1 , no commentary.
Key: 30

From here, focus on the item given below.
Exercise: Return value of half-life for input O=C(NO)c1cnc(NC2(c3ccccc3)CC2)nc1 , no commentary.
Key: 12

---

- measurement notes: Pharmacokinetics and brain bio-distribution in mice
- Assay type: in vivo, mouse
- measurement setup: mouse, plasma, intraperitoneal; read-out: plasma concentration after two hours
metric name: concentration at 2 h

Exercise: Return value of concentration at 2 h for input O=C(NO)c1cnc(NC2(c3ccccc3)CC2)nc1 [Compound 73] , no commentary.
Key: < 10 ng/mL

***
Exercise: Return value of concentration at 2 h for input O=C(NO)c1cnc(NC2(c3cccc(F)c3)CCCCC2)nc1 [Compound 101] , no commentary.
Key: < 10 ng/mL

---

Catalogue of Kp values
- measurement notes: Pharmacokinetics and brain bio-distribution in mice
- Assay type: in vivo, mouse
- measurement setup: mouse, brain, intraperitoneal; calculated over 2 hours; read-out: AUCBrain/AUCplasma ratio

Exercise: Return value of Kp for input O=C(NO)c1cnc(NC2(c3cccc(F)c3)CCCCC2)nc1 [Compound 101] , no commentary.
Key: > 1

From here, focus on the item given below.
Exercise: Return value of Kp for input O=C(NO)c1cnc(NC2(c3ccccc3)CC2)nc1 [Compound 73] , no commentary.
Key: > 1

---

Catalogue of Kp values
- measurement notes: Pharmacokinetics and brain bio-distribution in mice
- Assay type: in vivo, mouse
- measurement setup: C57BL/6J, mouse, brain, intraperitoneal; calculated over 2 hours; read-out: AUCBrain/AUCplasma
Output: the number by itself.

Exercise: Return value of Kp for input O=C(NO)c1cnc(NC2(c3ccccc3)CC2)nc1 , no commentary.
Key: 1.22

***
Exercise: Return value of Kp for input O=C(NO)c1cnc(NC2(c3cccc(F)c3)CCCCC2)nc1 , no commentary.
Key: 1.26
